Biological target: Fibroblast growth factor 2 (Homo sapiens)
Assay: FGF2 binders on small-molecule microarrays, primary screen, biochemical, small-molecule microarray, 635/667 nm fluorescence (AID 1133)
Conditions: small-molecule microarray binding, FGF2, fluorescence 635/667; higher = more signal
Returns class 1 if the recorded composite z-score is greater than or equal to -0.1, and class 0 otherwise.

Below are worked cases with known answers.
{"compound": "CCN(CC)c1ccc(N2CC=CC34O[C@@H]5C=CCOC(=O)[C@@H]5[C@H]3C(=O)N(CCCO)[C@@H]4C2=O)cc1 (stereo partly drawn)", "category label": "class 0"}
{"compound": "COC(=O)[C@@]1(Cc2ccccc2)[C@@H]2[C@@H](CC(=O)[C@H]2CC(=O)C(=O)N(C)C)CN1C(=O)c1ccccc1", "category label": "class 0"}
{"compound": "CC(=O)NCCCC[C@@H]1NC(=O)[C@H]2C[C@@H](C(=O)NCCCCCC[N+](C)(C)C)[C@@H](c3ccc(O)cc3)N2C1=O", "category label": "class 1"}
{"compound": "NC(=O)N1C(=O)C2C(C1=O)C1C=C(CCCO)C2C(c2ccc(CN3CCCC3)cc2)N1Cc1cccc(OC(F)(F)F)c1 (stereo not drawn)", "category label": "class 1"}
{"compound": "COc1ccc([Si](C)(C)[C@H]2[C@H](CC(=O)N3Cc4ccccc4C[C@H]3CO)O[C@@]3(C(=O)N(Cc4cccc(N5C(=O)c6cccc7cccc5c67)c4)c4ccccc43)[C@@H]2C)cc1", "category label": "class 1"}
{"compound": "COCCOC(=O)N1C(=O)[C@@]2(c3cc(C#CCCO)ccc31)[C@H](c1ccccc1OCCO)N1[C@H](c3ccccc3)[C@H](c3ccccc3)OC(=O)[C@H]1[C@@H]2C(=O)N1CCc2cc(OC)c(OC)cc2C1", "category label": "class 1"}
{"compound": "COC(=O)Cn1c(C(=O)N(C)C)cc2c1C[C@H]1CN(C(=O)c3ccccc3)[C@@](Cc3ccc(OC)cc3)(C(=O)OC)[C@@H]21", "category label": "class 0"}
{"compound": "[N-]=[N+]=NCc1ccccc1C[C@]1(C(=O)N2CCOCC2)N=C(c2ccc(OCCCO)cc2)O[C@H]1c1ccccc1CN=[N+]=[N-]", "category label": "class 1"}

query: Confirm if composite z-score reported for the compound C=CCC(OC(C)=O)[C@@H]1[C@@H](N(Cc2cccc3ccccc23)C(=O)c2ccc(C)cc2)c2cc(OCCCO)ccc2N1C(=O)c1ccc2ccccc2n1 (stereo partly drawn) is -0.1 or above.
result: class 1

query: Confirm if composite z-score reported for the compound COC(=O)C1(CC(C)C)C=C2C(=C(C(C)C)C(=O)C2C)CN1 (stereo not drawn) is -0.1 or above.
result: class 0

====

composite z-score values by entry
Target: Epidermal growth factor receptor (Homo sapiens) (UniProt P00533)
Sequence (P00533 whole entry, looked up): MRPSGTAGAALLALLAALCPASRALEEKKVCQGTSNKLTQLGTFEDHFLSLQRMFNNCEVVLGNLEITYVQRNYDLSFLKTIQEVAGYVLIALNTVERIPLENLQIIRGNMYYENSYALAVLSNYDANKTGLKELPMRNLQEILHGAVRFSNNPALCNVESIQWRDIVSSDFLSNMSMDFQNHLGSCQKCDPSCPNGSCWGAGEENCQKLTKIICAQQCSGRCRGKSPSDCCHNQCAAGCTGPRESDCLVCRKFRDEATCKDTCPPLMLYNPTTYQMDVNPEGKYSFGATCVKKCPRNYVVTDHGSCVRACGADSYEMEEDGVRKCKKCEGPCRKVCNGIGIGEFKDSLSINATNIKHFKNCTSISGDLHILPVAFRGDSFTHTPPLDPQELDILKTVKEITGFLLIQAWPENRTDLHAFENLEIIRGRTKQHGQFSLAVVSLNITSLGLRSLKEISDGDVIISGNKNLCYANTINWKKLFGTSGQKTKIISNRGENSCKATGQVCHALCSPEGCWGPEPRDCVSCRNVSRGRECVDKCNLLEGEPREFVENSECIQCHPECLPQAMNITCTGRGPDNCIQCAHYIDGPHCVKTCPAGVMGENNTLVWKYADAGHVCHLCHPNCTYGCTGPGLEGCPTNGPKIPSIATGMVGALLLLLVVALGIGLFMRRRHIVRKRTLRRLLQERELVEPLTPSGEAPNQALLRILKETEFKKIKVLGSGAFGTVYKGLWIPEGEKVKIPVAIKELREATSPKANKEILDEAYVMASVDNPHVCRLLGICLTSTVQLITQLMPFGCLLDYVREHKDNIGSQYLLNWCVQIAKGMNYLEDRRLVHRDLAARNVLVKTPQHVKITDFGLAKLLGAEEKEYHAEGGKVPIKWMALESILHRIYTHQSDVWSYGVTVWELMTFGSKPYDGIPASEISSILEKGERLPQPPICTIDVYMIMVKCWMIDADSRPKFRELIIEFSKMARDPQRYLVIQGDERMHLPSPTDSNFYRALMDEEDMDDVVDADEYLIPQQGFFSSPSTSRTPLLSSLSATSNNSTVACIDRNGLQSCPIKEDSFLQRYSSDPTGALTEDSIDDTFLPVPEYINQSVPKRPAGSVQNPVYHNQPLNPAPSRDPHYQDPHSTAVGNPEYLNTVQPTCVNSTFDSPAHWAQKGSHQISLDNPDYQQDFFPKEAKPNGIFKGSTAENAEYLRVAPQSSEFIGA
Experiment: EGFR binders on small-molecule microarrays, primary screen, biochemical, small-molecule microarray, 635 nm fluorescence (AID 1104);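 note: score merges 667 nm emission intensity with spot signal to noise over triplicate slides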
Conditions: EGFR binding, higher = more signal

{"compound": "[N-]=[N+]=NCc1ccccc1C[C@]1(C(=O)NCc2ccccc2)N=C(c2ccc(OCCCO)cc2)O[C@H]1c1ccccc1CN=[N+]=[N-]", "experimental endpoint": "composite z-score", "observed result": -0.253}
{"compound": "CC(C)(C)N1CC=CC23O[C@@H]4/C=C\\CCCOC(=O)C4[C@H]2C(=O)N(CCCCCCO)[C@@H]3C1=O (some centres undefined)", "experimental endpoint": "composite z-score", "observed result": -0.741}
{"compound": "O=C1O[C@H](c2ccccc2)[C@H](c2ccccc2)N2[C@H]1[C@@H](C(=O)N1CCN(c3ncccn3)CC1)[C@]1(C(=O)Nc3ccccc31)[C@H]2c1ccc(O)cc1", "experimental endpoint": "composite z-score", "observed result": -0.149}
{"compound": "CC(C)N1CC=CC23O[C@@H]4C=CCCOC(=O)C4[C@H]2C(=O)N(CCCCCO)[C@@H]3C1=O (some centres undefined)", "experimental endpoint": "composite z-score", "observed result": -0.575}
{"compound": "COc1cc2c(cc1O)C(C1CC1)N(Cc1ccc([N+](=O)[O-])o1)CC2 (centres undefined)", "experimental endpoint": "composite z-score", "observed result": 0.117}
{"compound": "COCCOC(=O)N1C(=O)[C@@]2(c3cc(C#CC4(O)CCCCCC4)ccc31)[C@H](c1ccc(OCCO)cc1)N1[C@H](c3ccccc3)[C@H](c3ccccc3)OC(=O)[C@H]1[C@@H]2C(=O)N1CCCCCCC1", "experimental endpoint": "composite z-score", "observed result": 0.825}
{"compound": "CC(C)C(=C=CC[C@@H](O)c1cccc(OCCO)c1)CCO", "experimental endpoint": "composite z-score", "observed result": -0.554}
{"compound": "CCOC(=O)C1=C[C@@H](C(C)(C)C)N(S(=O)(=O)c2ccc(C)cc2)[C@H]1c1ccccc1Cl", "experimental endpoint": "composite z-score", "observed result": 0.292}

query: Suppose we examine the compound C=C(/C(=C/C[C@@H](OC(C)=O)c1ccccc1OCCO)c1cc(C(=O)OC)ccc1OC)C(C)C ; what composite z-score value has been reported?
result: -0.209

Taken from PubChem BioAssay.
